- RUN DESCRIPTION: NCI Yeast Anticancer Drug Screen. Data for the rad50 strain (AID 155);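 further: 0% = growth of vehicle-only cultures of the same strain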
- EXPERIMENTAL PARAMETERS: S. cerevisiae rad50 strain growth inhibition; at 50.0 µM; stronger effect = higher value
The panel holds about 79,000 compounds, 15% with a hit somewhere; the sample as a whole holds those more often. The source made the active and inactive calls. No stated cut-off is given here; in the data, active means growth inhibition above about 70%; inactive means the rest.
Would you mind telling me the reported growth inhibition of each entry?

Tell us which growth inhibition value is on record for CCOC(=O)CCN1C(=O)C(=O)N(c2ccc(OC)cc2)C1=S
-7% (inactive)

Tell us which growth inhibition value is on record for COCCN(C)C(c1ccccc1)C(O)c1ccccc1 (stereo not drawn)
4.8% (inactive)

Tell us which growth inhibition value is on record for CC(=O)CC(C)=Nc1ccc([N+](=O)[O-])cc1
1.75% (inactive)

Tell us which growth inhibition value is on record for CNc1cccc2c1C(=O)c1ccccc1C2=O
0.55% (inactive)

Tell us which growth inhibition value is on record for [Cl][Pt+2][Cl].[NH-]c1cccc(C(F)(F)F)c1.[NH-]c1cccc(C(F)(F)F)c1
2.1% (inactive)

Tell us which growth inhibition value is on record for O=C(c1ccccc1)c1ccc2cccc3c2c1CC3
40.2% (inactive)

Tell us which growth inhibition value is on record for CN(C)CCN(C)CC(C)(C)C(=O)/C=C/c1ccccc1
-26% (inactive)

Tell us which growth inhibition value is on record for CCCCCCCC/C=C/CCCCCCCC(=O)OCC(C)(C)N1C(=O)CCC1=O
-11.2% (inactive)

Tell us which growth inhibition value is on record for c1csc(NC(Nc2nccs2)C23CC4CC(CC(C4)C2)C3)n1
28.1% (inactive)

Tell us which growth inhibition value is on record for O=C(/C(=C(/[O-])C(F)(F)F)[n+]1ccc2ccccc2c1)C(F)(F)F
-16.4% (inactive)

Tell us which growth inhibition value is on record for Cc1cccc(-c2nnc3s/c(=C\c4ccc5c(c4)OCO5)c(=O)n23)c1
-20.1% (inactive)

Tell us which growth inhibition value is on record for CCN(CC)Cc1cc(N)cc(N=Nc2ccc3c(c2)c2ccccc2n3CC)c1O
29.2% (inactive)

Tell us which growth inhibition value is on record for O=C1CSc2nc3c(Cl)cc(Cl)cc3c(=O)n21
15.7% (inactive)

Tell us which growth inhibition value is on record for COc1ncnc2ccccc12
-30.9% (inactive)

Tell us which growth inhibition value is on record for O=C(CCCCCCCCC(=O)NCC1(c2ccccc2)CCNCC1)NCC1(c2ccccc2)CCNCC1
-27.5% (inactive)

Tell us which growth inhibition value is on record for O=C(O)C1CCC(C(=O)O)CC1.[NH-]C1CCCCC1[NH-].[Pt+2] (stereo not drawn)
45.6% (inactive)

Tell us which growth inhibition value is on record for C=C1C(=O)OC2CC3(CO3)C3C(O)C(O)CC3(C)CC12 (stereo not drawn)
2.4% (inactive)

Tell us which growth inhibition value is on record for CCCCC(=O)CCC(=O)O
9.7% (inactive)

Tell us which growth inhibition value is on record for c1ccc(CN(CCNc2ccccc2)c2ccccc2)cc1
13.2% (inactive)

Tell us which growth inhibition value is on record for CC(=O)CC(C)(C)NNC(N)=S
1.45% (inactive)

Tell us which growth inhibition value is on record for CC/C(C)=N\NC(=O)CC(=O)N/N=C(/C)CC
-8.35% (inactive)

Tell us which growth inhibition value is on record for CCC[N+](C)(C)C
5.65% (inactive)

Tell us which growth inhibition value is on record for O=C(NO)Nc1ccc(Cl)cc1
12.2% (inactive)

Tell us which growth inhibition value is on record for Nc1ccc(S(=O)(=O)N(CCO)CCO)cc1
-2.65% (inactive)

Tell us which growth inhibition value is on record for Cc1ccc(C(c2ccc(C)c(C)c2)C(O)C(O)C(O)CO)cc1C (stereo not drawn)
20% (inactive)

Tell us which growth inhibition value is on record for CC(=O)c1cc([N+](=O)[O-])c(O)c([N+](=O)[O-])c1O
20.4% (inactive)

Tell us which growth inhibition value is on record for CCCCN(C(=O)CCC)c1ccccc1
-71.1% (inactive)

Tell us which growth inhibition value is on record for OC1COCCC(O)(CNCc2ccccc2)C1O (stereo not drawn)
7.4% (inactive)
